Assay: GDH-TPI coupling enzyme inhibitors, primary screen, artefact control for M. tuberculosis FBA inhibitor project, biochemical, absorbance, full deck (AID 588335)
Conditions: GDH-TPI coupled enzyme counterscreen, NADH absorbance; at 4.8 µM
The campaign covered roughly 360,000 compounds. About 4,500 (1.2%) were called active. No stated cut-off is given here; in the data, active means inhibition above about 30%; inactive means the rest. Only a selection was taken, and actives are over-represented in it overall.
Answer with one of the outcomes active, inactive

[ask] # outcome recorded in this test, key = Cc1cc(NC(=O)CN2C(=O)NC(C)(CCc3ccccc3)C2=O)no1 (centres undefined)
[reply] inactive

[ask] # outcome recorded in this test, key = `OCCNc1nc2ccccc2n1-c1ncnc2sc3c(c12)CCC3`
[reply] inactive

[ask] # outcome recorded in this test, key = `CCOC(=O)c1c(N)sc2c1CCCC2=O`
[reply] active

[ask] # outcome recorded in this test, key = `CCCNS(=O)(=O)c1ccc(CCC(=O)NCc2cccnc2)cc1`
[reply] inactive

[ask] # outcome recorded in this test, key = `Clc1cccc(-c2nc3nc4ccccc4nc3n2Cc2ccco2)c1`
[reply] active

[ask] # outcome recorded in this test, key = `Cc1cc2c(C)nc(N/N=C/c3ccccc3)nc2o1`
[reply] inactive

[ask] # outcome recorded in this test, key = `COC(=O)c1c(-c2ccsc2)oc2ccc(-c3cc(OC)c(OC)c(OC)c3)cc12`
[reply] inactive

[ask] # outcome recorded in this test, key = `Cc1cc(NCc2ccco2)n2c(nc3ccccc32)c1C#N`
[reply] inactive

[ask] # outcome recorded in this test, key = `CCOC(=O)c1c(C2CC2)csc1NC(=O)CSCc1c(C)noc1C`
[reply] inactive

[ask] # outcome recorded in this test, key = `Cc1nc(Cl)cc(N/N=C/c2ccccc2)n1`
[reply] active

[ask] # outcome recorded in this test, key = `COc1ccc(/C=N/NC(=O)c2ccc3c(c2)OCCO3)c(OC)c1`
[reply] active

[ask] # outcome recorded in this test, key = `Cc1nnc(Sc2nc3c(c(=O)[nH]c(=O)n3C)n2Cc2ccccc2)s1`
[reply] inactive

[ask] # outcome recorded in this test, key = `COc1ccc(OC)c(/C=C/C(=O)c2ccc3c(c2)OCO3)c1`
[reply] inactive

[ask] # outcome recorded in this test, key = `COc1ccc(OC)c(/C=N/NC(=O)c2ccc[n+](CC(=O)c3ccccc3)c2)c1`
[reply] inactive
